All values here come from patent US20220323406A1.

# Tested on: ENR+CD organoids
# METHOD: Primary screen: ATP (CellTiter-Glo 3D, CTG) cell number/viability, 2.5-D 384-well ENR+CD organoids;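 further: compounds given at plating and again on day 3 over a 6-day differentiation from ENR+CV stem-cell-enriched precursors, ATP measured on day 6, plate median as control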
# REPORTED CONDITIONS: primary screen, 4th dose row of the treatment (10.00 uM by row order; dose not reprinted)
Assignment: determine reported SSMD.CTG.Rep (strictly standardized mean difference) for the given compounds.
The response must contain the number and no unit.

Q: For the compound shown here, C=CCNC1=C2C[C@@H](C)C[C@H](OC)[C@H](O)[C@@H](C)/C=C(\C)[C@H](OC(N)=O)[C@@H](OC)/C=C\C=C(/C)C(=O)NC(=CC1=O)C2=O , give the reported SSMD.CTG.Rep (strictly standardized mean difference).
Ans: −1.348

Q: Similarly, CN1CCc2cc3c(cc2[C@H]1[C@@H]1OC(=O)c2c1ccc1c2OCO1)OCO3 [(+)-Bicuculline] ?
Ans: −0.405

Q: Another: N#Cc1c(O)c2c(-c3ccc(-c4ccccc4O)cc3)csc2[nH]c1=O
Ans: −0.056

Q: What about CC1(C)CCC(CN2CCN(c3ccc(C(=O)NS(=O)(=O)c4ccc(NCC5CCOCC5)c([N+](=O)[O-])c4)c(Oc4cnc5[nH]ccc5c4)c3)CC2)=C(c2ccc(Cl)cc2)C1 ?
Ans: −1.402
